pKi: −log10 of the molar value.
Literature roundup of Prostaglandin E2 receptor EP1 subtype (Homo sapiens) data, read-out pKi.
We use 5 as the dividing line for pKi: on or above the line is YES, below is NO.

compound.smiles	label.value
O=C(O)/C=C/c1ccccc1/C=C/Cc1ccccc1OCc1ccccc1.O=C(O)/C=C/c1ccccc1C/C=C\c1ccccc1OCc1ccccc1	NO
O=C(O)CCCCCCN1C(=O)CC[C@@H]1/C=C/[C@@H](O)Cc1cccc(C(F)(F)F)c1	NO
O=C(O)c1csc(-n2nc(-c3ccccc3O)cc2C(F)(F)F)n1	YES
O=C(O)CCc1ccccc1-c1ccc(-c2ccccc2OCc2ccccc2)s1	NO
O=C(CCc1ccccc1-c1ccccc1CSCCc1ccccc1)NS(=O)(=O)c1cccs1	YES
O=C(O)CCc1ccccc1-c1cc(-c2ccccc2OCc2ccccc2)cs1	NO
Cc1cccc(CCCc2ccccc2/C=C/C(=O)O)c1OCc1ccccc1	NO
O=C(O)c1csc(SCCN2C(=O)OC[C@@H]2/C=C/[C@@H](O)C2(CCC3CCCCC3)CCC2)n1	YES
Cc1c(-c2ccccc2)nn(-c2nc(C(=O)O)cs2)c1-c1ccccc1	YES
CCCC1([C@H](O)C/C=C/[C@H]2[C@H](O)CC(=O)[C@@H]2CCCCCCC(=O)OC)CCC1	NO
O=C(O)c1ccc(C2(NC(=O)c3cccc4ccn(Cc5ccc(C(F)(F)F)cc5)c34)CC2)cc1	NO
C[C@H](NC(=O)[C@H]1CCCCN1CCOc1ccccc1)c1ccc(C(=O)O)cc1.Cl	NO
O=C(O)/C=C/c1ccccc1Cc1ccc2ccccc2c1	NO
CC(=O)c1cc(S(C)(=O)=O)cc2c3c(n(Cc4ccc(Cl)cc4)c12)[C@@H](CC(=O)O)CC3	NO
Cc1cccc(/C=C/Cc2ccccc2/C=C/C(=O)O)c1O	NO

###

Literature compilation of pKi measurements on the protein given by its sequence.
Target protein (sequence): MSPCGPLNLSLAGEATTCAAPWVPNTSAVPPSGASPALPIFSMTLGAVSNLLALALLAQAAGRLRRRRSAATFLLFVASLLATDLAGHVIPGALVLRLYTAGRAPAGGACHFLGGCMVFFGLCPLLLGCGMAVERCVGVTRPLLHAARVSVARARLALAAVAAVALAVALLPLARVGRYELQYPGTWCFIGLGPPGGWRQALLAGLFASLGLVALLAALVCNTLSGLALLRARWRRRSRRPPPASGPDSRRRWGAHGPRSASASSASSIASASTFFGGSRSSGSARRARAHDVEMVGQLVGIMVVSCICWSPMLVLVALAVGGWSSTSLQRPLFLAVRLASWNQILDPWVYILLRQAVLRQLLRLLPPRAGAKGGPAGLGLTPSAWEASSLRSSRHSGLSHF
pKi: −log10 of the molar value.
Output condition met for pKi not less than 5; output condition not met otherwise.

compound.smiles	label.value
Cc1cccc(OCCCOc2ccc(-c3ccccc3CNC(=O)NS(=O)(=O)c3cccs3)cc2)c1	condition not met
Cc1cccc(OCCCOc2ccc(-c3ccccc3CC(C)(C)C(=O)NS(=O)(=O)c3cccs3)cc2)c1	condition met
O=C(NCCc1ccccc1)NS(=O)(=O)c1ccccc1-c1ccc(CN2C(=O)c3ccccc3CCc3ccccc32)cc1	condition met
Cc1cccc(OCCCOc2ccc(-c3ccccc3COC(=O)NS(=O)(=O)c3cccs3)cc2)c1	condition met
O=C(O)/C=C/c1ccccc1/C=C/Cc1cccc(OCc2ccccc2)c1.O=C(O)/C=C/c1ccccc1C/C=C\c1cccc(OCc2ccccc2)c1	condition not met
CC(C)(C)CCC1([C@H](O)/C=C/[C@H]2COC(=O)N2CCSc2nc(C(=O)O)cs2)CCC1	condition met

###

pKi: −log10 of the molar value.
// merged dataset of pKi values, system = Prostaglandin E2 receptor EP1 subtype (Homo sapiens), multiple refs
assay.readout: pKi

compound	assay.readout	censoring.operator	measured.number
O=C(O)c1csc(-n2nc(-c3ccccc3)c3ccc(C(F)(F)F)nc32)n1	pKi	=	8.06
Cc1sc(C)c(C(=O)N[C@@H](C)c2ccc(C(=O)O)cc2)c1Cc1cccc(Cl)c1	pKi	<	5.65
O=C(CCc1ccccc1-c1ccc(CSCCc2ccccc2)cc1)NS(=O)(=O)c1cccs1	pKi	=	5.77
O=C(CCc1ccccc1-c1ccc(OCCCOc2cccc(CSCCc3ccccc3)c2)cc1)NS(=O)(=O)c1cccs1	pKi	=	4.89
C[C@H](NC(=O)c1c(Nc2cccc(C(F)(F)F)c2)c2ccccc2n1C)c1ccc(C(=O)O)cc1	pKi	<	5.02
Cc1cccc(/C=C/Cc2cccc(/C=C/C(=O)O)c2)c1OCc1ccccc1.Cc1cccc(C/C=C/c2cccc(/C=C/C(=O)O)c2)c1OCc1ccccc1	pKi	=	4.68
CC(O)c1cc(S(C)(=O)=O)cc2c3c(n(Cc4ccc(Cl)cc4)c12)[C@@H](CC(=O)O)CC3 (stereo partly drawn)	pKi	<	4.70
O=C(O)COc1cccc2c1CCC[C@H]2N1CCC[C@@H]1c1nc(-c2ccccc2)c(-c2ccccc2)o1	pKi	<	6.00
O=C(NS(=O)(=O)CCc1ccccc1-c1ccc(CSCCc2ccccc2)cc1)c1cccs1	pKi	=	5.55
O=C(O)CCc1ccccc1-c1cccc(-c2ccccc2COc2ccccc2)c1	pKi	=	5.02
CCCCc1nn(-c2ccccc2C(F)(F)F)c(=O)n1Cc1ccc(-c2ccccc2S(=O)(=O)NC(=O)c2cccs2)cc1	pKi	<	5.00
Cc1sc(C)c(C(=O)NC2(c3ccc(-c4nn[nH]n4)cc3)CC2)c1Cc1ccc(C(F)(F)F)cc1	pKi	<	6.30
O=C(NC/C=C1\CCCc2cnn(Cc3ccc(Cl)cc3Cl)c21)NS(=O)(=O)c1ccc(Cl)cc1	pKi	=	5.46
Cc1ccc(C(=O)O)c(C)c1NC(=O)c1cc(-c2cccc(Cl)c2)cc2ccccc12	pKi	<	4.71
Cc1sc(C)c(C(=O)N[C@@H](C)c2ccc(C(=O)O)cc2)c1Cc1cccc(C(F)(F)F)c1	pKi	<	5.46
O=C(O)/C=C/c1ccccc1Cc1ccc2cc(OCc3ccccc3)ccc2c1	pKi	<	4.00
CCCCNC(=O)NS(=O)(=O)c1ccccc1-c1ccc(CN2C(=O)c3ccccc3CCc3ccccc32)cc1	pKi	=	6.66
CS(=O)(=O)c1cccc(-c2ccccc2CCC(=O)NS(=O)(=O)c2cccs2)c1	pKi	<	4.00

###

Here we gather pKi data for Prostaglandin E2 receptor EP1 subtype (Homo sapiens) reported by several publications.
pKi: −log10 of the molar value.
assay.readout: pKi

molecule	assay.readout	censoring.operator	measured.number
O=C(CCCc1ccccc1-c1ccc(CSCCc2ccccc2)cc1)NS(=O)(=O)c1cccs1	pKi	=	5.52
C[C@H](NC(=O)c1cccc2ccn(Cc3cccc(C(F)(F)F)c3)c12)c1ccc(C(=O)O)cc1	pKi	≤	6.11
Cc1cccc(C(O)/C=C/c2ccccc2/C=C/C(=O)O)c1OCc1c(Cl)cccc1Cl (stereo not given)	pKi	=	4.89
CC(C)(CCCCF)[C@H](O)/C=C/[C@H]1COC(=O)N1CCSc1nc(C(=O)O)cs1	pKi	=	6.37
COc1cc(C/C=C/c2ccccc2/C=C/C(=O)NS(=O)(=O)c2cccs2)ccc1OCc1ccccc1	pKi	=	5.61
O=C(O)/C=C/c1ccccc1/C=C/Cc1cccc(CO)c1OCc1c(Cl)cccc1Cl.O=C(O)/C=C/c1ccccc1C/C=C/c1cccc(CO)c1OCc1c(Cl)cccc1Cl	pKi	=	5.15
CCCCC[C@H](O)/C=C/[C@H]1CCC(=O)N1CCCCCCC(=O)O	pKi	<	4.00
CC(C(=O)NS(=O)(=O)c1ccccc1-c1ccc(CN2C(=O)c3ccccc3CCc3ccccc32)cc1)c1ccccc1 (stereo not given)	pKi	=	7.80
O=C(NCc1ccccc1)NS(=O)(=O)c1ccccc1-c1ccc(CN2C(=O)c3ccccc3CCc3ccccc32)cc1	pKi	=	6.70
COc1ccc(/C=C/Cc2ccccc2/C=C/C(=O)O)cc1	pKi	<	4.00
O=C(O)CCCCCCN1C(=O)CC[C@@H]1/C=C/C(O)Cc1cccc(C(F)(F)F)c1 (stereo not given in full)	pKi	<	4.00
C[C@@H](NC(=O)c1c(Cl)sc(Cl)c1Cc1cccc(Cl)c1)c1ccc(C(=O)O)cc1	pKi	<	6.65
O=C1c2ccccc2CCc2ccccc2N1Cc1ccc(-c2ccccc2S(=O)(=O)N(Cc2ccccc2)C(=O)NCCc2ccccc2)cc1	pKi	=	4.29
CCCC[C@H](O)/C=C/[C@H]1CCC(=O)N1CCc1ccc(C(=O)O)cc1	pKi	<	5.00
CCCCC(C)(C)[C@H](O)/C=C/[C@H]1COC(=O)N1CCSc1nc(C(=O)O)cs1	pKi	=	6.92
CC(=O)c1ccc(OCc2ccccc2)c(/C=C/Cc2ccccc2/C=C/C(=O)O)c1.CC(=O)c1ccc(OCc2ccccc2)c(C/C=C/c2ccccc2/C=C/C(=O)O)c1	pKi	=	5.55
O=C(NCCc1cccs1)NS(=O)(=O)c1ccccc1-c1ccc(CN2C(=O)c3ccccc3CCc3ccccc32)cc1	pKi	=	7.00
CCCCC[C@H](O)/C=C/[C@H]1[C@H](O)CC(=O)[C@@H]1C/C=C\CCCC(=O)O	pKi	=	7.74
O=C(O)c1ccc(CNC(=O)c2c(Cl)sc(Cl)c2Cc2cccc(Cl)c2)cc1	pKi	<	6.20
CCC1([C@@H](O)C/C=C/[C@@H]2[C@@H](C/C=C\CCCC(=O)O)[C@H](Cl)C[C@H]2O)CCC1	pKi	<	5.00
O=C(COc1ccccc1)NS(=O)(=O)c1ccccc1-c1ccc(CN2C(=O)c3ccccc3CCc3ccccc32)cc1	pKi	=	6.85
Cc1ccc(OCc2ccccc2)c(CCCc2ccccc2CCC(=O)O)c1	pKi	=	4.64
CCOCCC1([C@H](O)/C=C/[C@H]2COC(=O)N2CCSc2nc(C(=O)O)cs2)CCC1	pKi	=	5.07
CC(C)(C(=O)NS(=O)(=O)c1ccccc1-c1ccc(CN2C(=O)c3ccccc3CCc3ccccc32)cc1)c1ccccc1	pKi	=	8.00
O=C(/C=C/c1ccccc1-c1ccc(Cl)c(Cl)c1)NS(=O)(=O)c1cccs1	pKi	=	5.09
O=C(O)CNc1ccccc1-c1csc(-c2ccccc2OCc2ccccc2)c1	pKi	=	4.07
CCCC/C(C)=C/C=C/[C@H]1CCC(=O)N1CCc1ccc(C(=O)O)cc1	pKi	=	5.00
C[C@H](NC(=O)c1cc(Cl)cc2ccn(Cc3cccc(Cl)c3)c12)c1ccc(C(=O)O)cc1	pKi	≤	6.96
O=C(O)COc1cccc(CN(Cc2ccc(-n3cccn3)cc2)S(=O)(=O)c2cccnc2)c1	pKi	<	5.49
O=C(O)COc1cccc2c1CC[C@](O)(COC(=O)N(c1ccccc1)c1ccccc1)C2O (single isomer, unassigned)	pKi	<	6.00
O=C(O)CCc1ccccc1-c1csc(-c2ccccc2OCc2ccccc2)c1	pKi	=	4.75
CC(C)(C)c1ccc(CN(Cc2cccc(OCC(=O)O)c2)S(=O)(=O)c2cccnc2)cc1	pKi	<	5.55
c1ccc(CCSCc2ccc(-c3ccccc3CCc3nnn[nH]3)cc2)cc1	pKi	=	5.31
C[C@H](NC(=O)NS(=O)(=O)c1ccccc1-c1ccc(CN2C(=O)c3ccccc3CCc3ccccc32)cc1)c1ccccc1	pKi	=	6.85
O=C(O)/C=C/c1ccccc1C/C=C/c1ccccc1	pKi	<	4.00
